Data provenance: patent US20240166609A1

- Test system: P. aeruginosa 209 PAO1
- Test: Bacterial susceptibility testing, MIC by broth microdilution (CLSI)
- Assay type: cell-based
- Measurement context: Pseudomonas aeruginosa, 35° C., 18-24 h, read-out: MIC (μg/mL) P. aeruginosa 209 PAO1
Parameter MIC: see the listing below.
Give the value, in units of µg/mL, as a plain number.

> print(dat)
                                   compound          assayed.target  endpoint.result
1  C[C@H](O)c1nccn1[C@@H](C#Cc1ccc(-c2ccc(C3CC(NCCC#N)C3)cc2)cc1)CO (stereo partly shown)  P. aeruginosa 209 PAO1                1
2  C[C@H](O)c1nccn1[C@@H](C#Cc1ccc(-c2ccc(C[C@@H]3COC[C@H]3O)cc2)cc1)CO  P. aeruginosa 209 PAO1                4
3  C[C@H](O)c1nccn1[C@@H](C#Cc1ccc(-c2ccc(C3CC(NC(C#N)CO)C3)cc2)cc1)CO (stereo partly shown)  P. aeruginosa 209 PAO1                2
4  C[C@H](O)c1nccn1[C@@H](C#Cc1ccc(-c2ccc(O[C@H]3COC[C@@H]3O)cc2)cc1)CN (relative stereo)  P. aeruginosa 209 PAO1                2
5  C[C@H](O)c1nccn1[C@@H](C#Cc1ccc(-c2ccc(C3CC(N[C@H]4COC[C@@H]4O)C3)cc2)cc1)CO (stereo partly shown)  P. aeruginosa 209 PAO1                4

Fill in the blank: the reported MIC of C[C@H](O)c1nccn1[C@@H](C#Cc1ccc(-c2ccc(COCC(N)CO)cc2)cc1)CO (mixture of isomers) is ____.
2

Fill in the blank: the reported MIC of C[C@H](O)c1nccn1[C@@H](C#Cc1ccc(-c2ccc(O[C@@H]3C[C@H]3N)cc2)cc1)CO (racemic) is ____.
2
